- SUBJECT OF TEST: Autotaxin (Homo sapiens) (UniProt Q13822)
- PROTOCOL DETAILS: Inhibition of autotaxin assessed as residual enzyme activity at 1 uM relative to control
READOUT NAME: Activity (%)

1. CCCCCCCCCCCCCCCC(=O)N[C@@H](CC(C)C)C(=O)CP(=O)(O)O ... 89
2. CCCCCCCCCCCCCCCC(=O)N[C@@H](Cc1ccccc1)C(O)CP(=O)(O)O (single isomer, unassigned; diastereomer a) ... 88
3. CCCCCCCCCCCCCCCC(=O)N[C@@H](Cc1ccc(OCc2ncc(C)c(OC)c2C)cc1)C[C@@H](O)P(=O)(O)O ... 71
4. CCCCCCCCCCCCCCCC(=O)N[C@@H](CC(C)C)C(O)CP(=O)(O)O (single isomer, unassigned; diastereomer a) ... 68

Ref: ChEMBL document CHEMBL1142314
